Biological target: recombinant CETP enzyme (rCETP) (Homo sapiens)
Sequence (P11597 18-493): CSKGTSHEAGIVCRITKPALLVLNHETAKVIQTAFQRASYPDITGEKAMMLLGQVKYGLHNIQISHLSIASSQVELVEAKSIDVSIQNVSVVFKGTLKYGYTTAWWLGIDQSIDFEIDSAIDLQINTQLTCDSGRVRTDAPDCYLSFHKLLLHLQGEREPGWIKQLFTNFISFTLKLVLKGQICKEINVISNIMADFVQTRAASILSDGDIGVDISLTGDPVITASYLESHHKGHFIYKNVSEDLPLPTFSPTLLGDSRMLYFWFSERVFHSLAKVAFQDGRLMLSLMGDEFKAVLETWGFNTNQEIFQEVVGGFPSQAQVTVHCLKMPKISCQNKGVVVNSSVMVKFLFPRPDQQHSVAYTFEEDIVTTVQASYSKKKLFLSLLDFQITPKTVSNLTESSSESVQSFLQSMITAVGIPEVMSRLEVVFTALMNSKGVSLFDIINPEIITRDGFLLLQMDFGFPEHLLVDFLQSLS
Assay: In vitro CETP inhibition assay, fluorometric kit (ROAR Biomedicals)
Settings: rCETP 50 ng, 37° C. for 90 minutes, fluorescence Ex 492 nm / Em 516 nm
pIC50: −log10 of the molar value.
Assign Condition met to entries whose pIC50 meets or exceeds 7; assign Condition not met to the rest.

MOLECULE | TESTED_ON | ASSIGNED_CLASS
Cc1nn(C)c2nc(N(CC3CC3)CC3CC3)c(CN(Cc3cc(C(F)(F)F)cc(C(F)(F)F)c3)c3ncc(N4CCOCC4)cn3)cc12 [Example 15] | recombinant CETP enzyme (rCETP) (Homo sapiens) | Condition met
Cc1nn(C(C)(C)C)c2nc(N(CC3CC3)CC3CC3)c(CN(Cc3cc(C(F)(F)F)cc(C(F)(F)F)c3)c3ncc(-c4ccon4)cn3)cc12 [Example 7] | recombinant CETP enzyme (rCETP) (Homo sapiens) | Condition met
Cc1nn(C(C)(C)C)c2nc(N(CC3CC3)CC3CC3)c(CN(Cc3cc(C(F)(F)F)cc(C(F)(F)F)c3)c3ncc(N4CCOCC4)cn3)cc12 [Example 14] | recombinant CETP enzyme (rCETP) (Homo sapiens) | Condition met
CC(=O)c1cnc(N(Cc2cc(C(F)(F)F)cc(C(F)(F)F)c2)Cc2cc3c(C)nn(C)c3nc2N(CC2CC2)CC2CC2)nc1 [Example 4] | recombinant CETP enzyme (rCETP) (Homo sapiens) | Condition met
Cc1nn(C(C)(C)C)c2nc(N(CC3CC3)CC3CC3)c(CN(Cc3cc(C(F)(F)F)cc(C(F)(F)F)c3)c3ncc(N4CCCC4=O)cn3)cc12 [Example 16] | recombinant CETP enzyme (rCETP) (Homo sapiens) | Condition met
Cc1nn(C(C)(C)C)c2nc(N(CC3CC3)CC3CC3)c(CN(Cc3cc(C(F)(F)F)cc(C(F)(F)F)c3)c3ncc(C(=O)N(C)C)cn3)cc12 [Example 12] | recombinant CETP enzyme (rCETP) (Homo sapiens) | Condition not met
Cc1nn(C(C)(C)C)c2nc(N(CC3CC3)CC3CC3)c(CN(Cc3cc(C(F)(F)F)cc(C(F)(F)F)c3)c3ncc(-c4cc[nH]n4)cn3)cc12 [Example 8] | recombinant CETP enzyme (rCETP) (Homo sapiens) | Condition met
Cc1nc(N(Cc2cc(C(F)(F)F)cc(C(F)(F)F)c2)Cc2cc3c(C)nn(C(C)(C)C)c3nc2N(CC2CC2)CC2CC2)ncc1C(=O)O [Example 18] | recombinant CETP enzyme (rCETP) (Homo sapiens) | Condition met
Cc1nn(C(C)(C)C)c2nc(N(CC3CC3)CC3CC3)c(CN(Cc3cc(C(F)(F)F)cc(C(F)(F)F)c3)c3ncc(C#N)cn3)cc12 [Example 10] | recombinant CETP enzyme (rCETP) (Homo sapiens) | Condition not met

* * *

Biological target: recombinant CETP enzyme (rCETP) (Homo sapiens, UniProt P11597)
Experiment: In vitro CETP inhibition assay, fluorometric kit (ROAR Biomedicals)
Details: rCETP 50 ng, 37° C. for 90 minutes, fluorescence Ex 492 nm / Em 516 nm
pIC50: −log10 of the molar value.

MOLECULE | pIC50
Cc1nn(C(C)(C)C)c2nc(N(CC3CC3)CC3CC3)c(CN(Cc3cc(C(F)(F)F)cc(C(F)(F)F)c3)c3ccc(C4CC4)cn3)cc12 [Example 2] | 7.11
Cc1nn(C(C)(C)C)c2nc(N(CC3CC3)CC3CC3)c(CN(Cc3cc(C(F)(F)F)cc(C(F)(F)F)c3)c3ncc(-c4ccn(C)n4)cn3)cc12 [Example 9] | 7.00
Cc1nn(C(C)(C)C)c2nc(N(CC3CC3)CC3CC3)c(CN(Cc3cc(C(F)(F)F)cc(C(F)(F)F)c3)c3ncc(NC(=O)C(C)C)cn3)cc12 [Example 1] | 7.19
